target: Recombinant human HDAC5 (Homo sapiens, UniProt Q9UQL6); construct: purchased BPS Biosciences; test: HDAC inhibitory assay, HDAC5 (Boc-Lys(Tfa)-AMC substrate); type: biochemical; settings: test concentration not given; average of triplicate
Sequence (Q9UQL6 whole entry): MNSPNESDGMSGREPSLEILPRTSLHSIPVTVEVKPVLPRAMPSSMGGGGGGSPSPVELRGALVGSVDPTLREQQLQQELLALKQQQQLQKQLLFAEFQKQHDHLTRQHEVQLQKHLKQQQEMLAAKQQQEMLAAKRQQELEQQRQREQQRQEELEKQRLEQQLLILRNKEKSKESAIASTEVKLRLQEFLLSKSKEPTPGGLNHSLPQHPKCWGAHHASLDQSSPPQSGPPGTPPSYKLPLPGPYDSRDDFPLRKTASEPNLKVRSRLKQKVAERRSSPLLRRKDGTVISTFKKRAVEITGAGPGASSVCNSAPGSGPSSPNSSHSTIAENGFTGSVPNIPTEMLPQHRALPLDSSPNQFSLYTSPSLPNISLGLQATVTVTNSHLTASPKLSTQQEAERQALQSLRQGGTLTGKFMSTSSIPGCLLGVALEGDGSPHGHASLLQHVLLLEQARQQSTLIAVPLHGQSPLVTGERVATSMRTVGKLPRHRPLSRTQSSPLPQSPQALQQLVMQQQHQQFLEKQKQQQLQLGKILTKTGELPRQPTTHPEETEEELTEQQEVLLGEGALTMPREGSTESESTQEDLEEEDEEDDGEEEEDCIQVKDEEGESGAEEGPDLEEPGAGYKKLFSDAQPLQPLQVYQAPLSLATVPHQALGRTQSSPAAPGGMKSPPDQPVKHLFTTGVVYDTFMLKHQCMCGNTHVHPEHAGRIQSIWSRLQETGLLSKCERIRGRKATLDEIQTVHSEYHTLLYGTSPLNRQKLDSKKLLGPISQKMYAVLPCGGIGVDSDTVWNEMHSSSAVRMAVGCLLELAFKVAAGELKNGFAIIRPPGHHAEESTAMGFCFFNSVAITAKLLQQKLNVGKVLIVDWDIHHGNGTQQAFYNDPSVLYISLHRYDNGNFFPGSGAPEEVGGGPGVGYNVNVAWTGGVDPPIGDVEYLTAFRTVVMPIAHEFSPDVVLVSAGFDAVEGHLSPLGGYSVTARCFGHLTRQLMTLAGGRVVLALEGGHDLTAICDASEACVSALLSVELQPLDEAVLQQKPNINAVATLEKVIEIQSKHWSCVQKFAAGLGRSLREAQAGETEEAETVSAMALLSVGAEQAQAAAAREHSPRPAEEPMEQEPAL
Where a name gives a salt, the structure may show the parent alone.
HDAC 5 inhibitory activity of 3% or higher: t. Under 3%: f.

Exam item: decide whether the reported HDAC 5 inhibitory activity for O=C(NCc1ccc(-c2ccccc2)cc1)c1coc(-c2ccccc2O)n1 is at least 3%. t

Now give it for O=C(Nc1ccc(-c2ccccc2)cc1)c1coc(-c2ccccc2O)n1 too. f

Now give it for O=C(NCCCCNCCC(c1ccccc1)c1ccccc1)c1coc(-c2ccccc2O)n1 [Example 12, hydrochloride] too. t

Now give it for O=C(NCc1cccc2ccccc12)c1coc(-c2ccccc2O)n1 too. t

Now give it for O=C(NCCCCN1C(=O)c2ccccc2C1=O)c1coc(-c2ccccc2O)n1 too. t

Now give it for O=C(NCCc1c[nH]c2ccccc12)c1coc(-c2ccccc2O)n1 too. f

Now give it for O=C(NCCCCNC(=O)C(c1ccccc1)c1ccccc1)c1coc(-c2ccccc2O)n1 too. f

Now give it for O=C(Nc1ccccc1)c1ccc(CNC(=O)c2coc(-c3ccccc3O)n2)cc1 too. f

Now give it for O=C(NCCC(c1ccccc1)c1ccccc1)c1coc(-c2ccccc2O)n1 too. t
